The measured values listed here are drawn from patent US20260092074A1.

# subject.of.test: human CYP11B2 (Homo sapiens, UniProt P19099)
# Construct: expressed in transfected cells
# method.notes: Inhibition of hCYP11B2 in transfected V79 cells
# Format: cell-based
# test.context: hamster V79 cells expressing human CYP11B2; substrate 11-deoxycorticosterone 200 nM
pIC50: −log10 of the molar value.
property: pIC50

molecule.smiles	assay.result
COc1cccc(CC(=O)N2CCOc3c(-c4ccc(C#N)cc4)cncc32)c1	8.74
N#Cc1ccc(-c2cncc3c2SCCN3S(=O)(=O)c2ccc(Cl)cc2)cc1	10.30
CC(=O)N1CCc2cc(S(=O)(=O)N3CCSc4c(-c5cc6cc(Cl)ccc6o5)cncc43)ccc21	8.70
N#Cc1ccc(-c2cncc3c2OCCN3C(=O)CCc2cccc(F)c2)cc1	8.68
N#Cc1ccc(-c2cncc3c2CCN3S(=O)(=O)c2cccc(C(F)(F)F)c2)cc1	8.74
N#Cc1ccc(-c2cncc3c2OCCN3C(=O)C2CN(S(=O)(=O)c3cccc(F)c3)C2)cc1	9.29
N#Cc1ccc(-c2cncc3c2OCCN3S(=O)(=O)c2ccc(C#N)cc2)cc1	8.30
N#Cc1ccc(-c2cncc3c2OCCN3C(=O)C2CN(S(=O)(=O)c3ccc([N+](=O)[O-])cc3)C2)cc1	8.48
Cc1ccsc1C(=O)N1CCc2c(-c3ccc(C#N)cc3)cncc21	7.70

* * *

# subject.of.test: human CYP11B1 (Homo sapiens, UniProt P15538)
# Sequence (P15538 25-503): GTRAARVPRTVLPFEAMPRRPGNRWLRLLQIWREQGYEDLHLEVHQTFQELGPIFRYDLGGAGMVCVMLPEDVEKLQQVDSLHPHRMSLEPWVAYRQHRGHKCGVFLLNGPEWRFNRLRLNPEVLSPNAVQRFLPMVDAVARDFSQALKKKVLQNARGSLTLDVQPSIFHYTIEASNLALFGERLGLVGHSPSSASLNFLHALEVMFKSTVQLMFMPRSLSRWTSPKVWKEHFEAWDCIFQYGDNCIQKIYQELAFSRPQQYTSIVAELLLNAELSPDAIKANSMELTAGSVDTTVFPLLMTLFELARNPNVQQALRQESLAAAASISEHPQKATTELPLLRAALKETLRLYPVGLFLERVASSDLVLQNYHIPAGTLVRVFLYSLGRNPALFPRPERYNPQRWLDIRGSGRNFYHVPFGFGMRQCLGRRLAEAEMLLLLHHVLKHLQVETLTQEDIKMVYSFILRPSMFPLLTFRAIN
# method.notes: Inhibition of hCYP11B1 in transfected V79 cells
# test.context: hamster V79 cells expressing human CYP11B1; substrate 11-deoxycortisol 200 nM
pIC50: −log10 of the molar value.
The entries below come with measured pIC50 values attached.
property: pIC50

molecule.smiles	assay.result
CS(=O)(=O)N1CCOc2c(-c3ccc(C#N)cc3)cncc21	9.39
COc1ccc(CCC(=O)N2CCOc3c(-c4ccc(C#N)cc4)cncc32)cc1	7.62
N#Cc1ccc(-c2cncc3c2ccn3S(=O)(=O)c2cccs2)cc1	9.15
N#Cc1ccc(-c2cncc3c2OCCN3S(=O)(=O)C2CN(S(=O)(=O)c3ccc(C#N)cc3)C2)cc1	7.16
N#Cc1ccc(-c2cncc3c2SCCN3S(=O)(=O)c2cccc(F)c2)cc1	9.15
N#Cc1ccc(-c2cncc3c2ccn3S(=O)(=O)c2ccccc2)cc1	9.52
N#Cc1ccc(C(=O)N2CC(S(=O)(=O)N3CCOc4c(-c5ccc(C#N)cc5)cncc43)C2)cc1	6.67
N#Cc1ccc2[nH]c(-c3cncc4c3OCCN4C(=O)C3CN(Cc4cccc(F)c4)C3)cc2c1	6.42
N#CN1CC2(C1)CN(c1cncc3c1OCCN3C(=O)C1CN(Cc3cccc(F)c3)C1)C2	5.45

* * *

# subject.of.test: UniProtKB P19099
# Sequence (P19099 25-503): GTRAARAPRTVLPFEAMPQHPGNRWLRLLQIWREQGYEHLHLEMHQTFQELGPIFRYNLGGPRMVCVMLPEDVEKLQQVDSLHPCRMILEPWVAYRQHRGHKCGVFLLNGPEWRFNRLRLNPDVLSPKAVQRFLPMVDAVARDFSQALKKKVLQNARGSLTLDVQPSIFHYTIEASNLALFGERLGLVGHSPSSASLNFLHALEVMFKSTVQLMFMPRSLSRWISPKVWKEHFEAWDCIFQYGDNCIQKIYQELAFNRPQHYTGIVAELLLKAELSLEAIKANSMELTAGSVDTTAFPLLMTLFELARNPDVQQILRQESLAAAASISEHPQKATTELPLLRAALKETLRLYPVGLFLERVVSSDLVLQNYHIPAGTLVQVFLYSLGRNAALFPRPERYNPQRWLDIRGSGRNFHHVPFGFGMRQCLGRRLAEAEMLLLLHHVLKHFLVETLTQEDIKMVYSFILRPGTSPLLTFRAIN
# method.notes: Inhibition of hCYP11B2 in transfected V79 cells
# test.context: hamster V79 cells expressing human CYP11B2; substrate 11-deoxycorticosterone 200 nM
// boundary case: IC50 equal to 1 nM maps to Not fulfilled; strictly smaller maps to Fulfilled

molecule	subject.of.test	class.assignment
Cc1cccc(C(=O)N2CCSc3c(-c4ccc(C#N)cc4)cncc32)c1 [S91]	UniProtKB P19099	Not fulfilled
N#CN1CCN(c2cncc3c2OCCN3C(=O)C2CN(Cc3cccc(F)c3)C2)C(=O)C1 [O99]	UniProtKB P19099	Not fulfilled
N#Cc1ccc(-c2cncc3c2CCN3C(=O)c2ccc(C(F)(F)F)cc2)cc1 [C22]	UniProtKB P19099	Not fulfilled
O=C(c1ccccc1F)N1CCc2c(-c3cccc(F)c3)cncc21 [C52]	UniProtKB P19099	Not fulfilled
N#Cc1ccc(-c2cncc3c2SCCN3S(=O)(=O)c2cccc(Cl)c2)cc1 [S14]	UniProtKB P19099	Fulfilled
Cc1ccc(S(=O)(=O)N2CCc3c(-c4ccc(C#N)cc4)cncc32)cc1 [C1]	UniProtKB P19099	Fulfilled
N#Cc1ccc(-c2cncc3c2CCN3S(=O)(=O)c2ccc(C#N)cc2)cc1 [C15]	UniProtKB P19099	Fulfilled
Cc1cccc(S(=O)(=O)N2CC(C(=O)N3CCOc4c(-c5ccc(C#N)cc5)cncc43)C2)c1 [O70]	UniProtKB P19099	Not fulfilled
O=S(=O)(C1CN(C2COC2)C1)N1CCSc2c(-c3cc4cc(Cl)ccc4o3)cncc21 [S103]	UniProtKB P19099	Not fulfilled
N#Cc1ccc(-c2cncc3c2OCCN3S(=O)(=O)C2CN(Cc3ccc(F)cc3)C2)cc1 [O123]	UniProtKB P19099	Fulfilled
COc1cccc(CCC(=O)N2CCOc3c(-c4ccc(C#N)cc4)cncc32)c1 [O52]	UniProtKB P19099	Not fulfilled
N#Cc1ccc(S(=O)(=O)N2CCOc3c(-c4cc5cc(C#N)ccc5o4)cncc32)cc1 [O129]	UniProtKB P19099	Not fulfilled
Cc1ccc(C(=O)N2CCc3c(-c4ccc(C#N)cc4)cncc32)cc1 [C33]	UniProtKB P19099	Not fulfilled
Cc1cccc(S(=O)(=O)n2ccc3c(-c4ccc(C#N)cc4)cncc32)c1 [E4]	UniProtKB P19099	Fulfilled
N#Cc1ccc(-c2cncc3c2SCCN3S(=O)(=O)c2ccc(F)cc2)cc1 [S10]	UniProtKB P19099	Fulfilled
COc1ccccc1C(=O)n1ccc2c(-c3ccc(C#N)cc3)cncc21 [E25]	UniProtKB P19099	Not fulfilled
COc1cccc(CN2CC(S(=O)(=O)N3CCOc4c(-c5ccc(C#N)cc5)cncc43)C2)c1 [O124]	UniProtKB P19099	Fulfilled
Cn1c(=O)c(=O)[nH]c2cncc(-c3ccc(F)cc3)c21 [N2]	UniProtKB P19099	Not fulfilled
N#Cc1ccc(-c2cncc3c2SCCN3S(=O)(=O)c2ccc([N+](=O)[O-])cc2)cc1 [S19]	UniProtKB P19099	Fulfilled
